Listed here are molecules together with their documented MIC.
Tested on: Pseudomonas aeruginosa
Assay: Antimicrobial susceptibility of carbapenem-resistant Pseudomonas aeruginosa PA2404 isolate expressing carbapenemase KPC2
Type: functional
Measured parameter: MIC

| Molecule | Reported |
| --- | --- |
| CC1(C)S[C@@H]2[C@H](NC(=O)[C@H](N)c3ccccc3)C(=O)N2[C@H]1C(=O)O [AMPICILLIN] | > 256 µg/mL |
| CC(C)(O/N=C(\C(=O)N[C@@H]1C(=O)N2C(C(=O)[O-])=C(C[n+]3ccccc3)CS[C@H]12)c1csc(N)n1)C(=O)O [CEFTAZIDIME] | 256 µg/mL |
| CC(O)[C@H]1C(=O)N2C(C(=O)O)=C(SCCNC=N)C[C@H]12 (single isomer, unassigned) [IMIPENEM ANHYDROUS] | 256 µg/mL |
| C[C@@H](O)[C@H]1C(=O)N2C(C(=O)O)=C(S[C@@H]3CN[C@H](C(=O)Nc4cccc(C(=O)O)c4)C3)[C@H](C)[C@H]12 [ERTAPENEM] | > 256 µg/mL |
| NCC[C@H](O)C(=O)N[C@@H]1C[C@H](N)[C@@H](O[C@H]2O[C@H](CN)[C@@H](O)[C@H](O)[C@H]2O)[C@H](O)[C@H]1O[C@H]1O[C@H](CO)[C@@H](O)[C@H](N)[C@H]1O [AMIKACIN] | 16 µg/mL |
| CCN1CCN(C(=O)N[C@@H](C(=O)N[C@@H]2C(=O)N3[C@@H]2SC(C)(C)[C@@H]3C(=O)O)c2ccccc2)C(=O)C1=O [PIPERACILLIN] | > 256 µg/mL |
| C[C@H]1[C@H](NC(=O)/C(=N\OC(C)(C)C(=O)O)c2csc(N)n2)C(=O)N1S(=O)(=O)O [AZTREONAM] | > 256 µg/mL |
| NC[C@H]1O[C@H](O[C@H]2[C@H](O)[C@@H](O[C@H]3O[C@H](CO)[C@@H](O)[C@H](N)[C@H]3O)[C@H](N)C[C@@H]2N)[C@H](N)C[C@@H]1O [TOBRAMYCIN] | > 128 µg/mL |
| CN(C)c1cc(NC(=O)CNC(C)(C)C)c(O)c2c1C[C@H]1C[C@H]3[C@H](N(C)C)C(O)=C(C(N)=O)C(=O)[C@@]3(O)C(O)=C1C2=O [TIGECYCLINE] | 16 µg/mL |
| CO/N=C(\C(=O)N[C@@H]1C(=O)N2C(C(=O)O)=C(COC(C)=O)CS[C@H]12)c1csc(N)n1 (stereo in doubt) [CEFOTAXIME] | > 256 µg/mL |
| C[C@@H](O)[C@H]1C(=O)N2C(C(=O)O)=C(S[C@@H]3CN[C@H](C(=O)N(C)C)C3)[C@H](C)[C@H]12 [MEROPENEM] | > 256 µg/mL |
| CO/N=C(\C(=O)N[C@@H]1C(=O)N2C(C(=O)[O-])=C(C[N+]3(C)CCCC3)CS[C@H]12)c1csc(N)n1 [CEFEPIME] | > 256 µg/mL |
| CO/N=C(\C(=O)N[C@@H]1C(=O)N2C(C(=O)O)=C(CSc3nc(=O)c(O)nn3C)CS[C@H]12)c1csc(N)n1 [CEFTRIAXONE] | > 256 µg/mL |
